Attribution: patent US20260116991A1

Kindly state OD450 at 0.0008 nM for each of the entries shown.
molecular target: biotinylated labeled human GPC3 protein (produced in-house) (human, UniProt P51654 25-559, limits assumed, biotinylated (Dojindo, Cat. No. LK03); sites not stated); test: ELISA, biotinylated human GPC3 protein
Enter your answer as a number in OD450; do not include the unit.

Query: Request the reported OD450 at 0.0008 nM associated with hAb006LH2L1 (antibody, human IgG1, V domains shown, Humanized F3.38.7; VH H2 + VL L1; expressed as human IgG1) VH: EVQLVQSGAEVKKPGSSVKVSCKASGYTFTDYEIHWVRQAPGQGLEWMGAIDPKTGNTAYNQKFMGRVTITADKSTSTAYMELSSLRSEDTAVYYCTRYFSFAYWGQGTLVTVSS VL: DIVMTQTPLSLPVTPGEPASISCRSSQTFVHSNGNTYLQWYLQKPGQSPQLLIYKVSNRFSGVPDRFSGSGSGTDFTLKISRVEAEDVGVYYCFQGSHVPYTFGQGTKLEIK
Reply: 0.192

Query: Request the reported OD450 at 0.0008 nM associated with hAb007LH2L1b (antibody, human IgG1, V domains shown, Humanized F3.81.19; VH H2 + VL L1b; expressed as human IgG1) VH: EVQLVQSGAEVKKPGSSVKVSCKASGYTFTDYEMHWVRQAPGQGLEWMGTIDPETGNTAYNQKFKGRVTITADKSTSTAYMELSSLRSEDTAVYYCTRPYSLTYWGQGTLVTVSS VL: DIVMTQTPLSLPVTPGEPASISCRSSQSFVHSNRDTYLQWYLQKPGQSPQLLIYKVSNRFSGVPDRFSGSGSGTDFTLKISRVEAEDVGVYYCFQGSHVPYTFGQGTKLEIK
Reply: 0.099

Query: Request the reported OD450 at 0.0008 nM associated with hAb007LH3L1b (antibody, human IgG1, V domains shown, Humanized F3.81.19; VH H3 + VL L1b; expressed as human IgG1) VH: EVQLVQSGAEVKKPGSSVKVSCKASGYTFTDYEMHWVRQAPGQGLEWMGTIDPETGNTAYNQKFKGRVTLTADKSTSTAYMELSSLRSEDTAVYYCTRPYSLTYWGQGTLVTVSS VL: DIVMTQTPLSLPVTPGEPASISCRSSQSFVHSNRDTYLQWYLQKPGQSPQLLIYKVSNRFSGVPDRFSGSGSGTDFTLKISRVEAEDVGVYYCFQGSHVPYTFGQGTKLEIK
Reply: 0.088
